The measured values listed here are drawn from patent US9675571B2.

ASSAYED_TARGET: UniProt:P14902
Sequence (P14902 whole entry): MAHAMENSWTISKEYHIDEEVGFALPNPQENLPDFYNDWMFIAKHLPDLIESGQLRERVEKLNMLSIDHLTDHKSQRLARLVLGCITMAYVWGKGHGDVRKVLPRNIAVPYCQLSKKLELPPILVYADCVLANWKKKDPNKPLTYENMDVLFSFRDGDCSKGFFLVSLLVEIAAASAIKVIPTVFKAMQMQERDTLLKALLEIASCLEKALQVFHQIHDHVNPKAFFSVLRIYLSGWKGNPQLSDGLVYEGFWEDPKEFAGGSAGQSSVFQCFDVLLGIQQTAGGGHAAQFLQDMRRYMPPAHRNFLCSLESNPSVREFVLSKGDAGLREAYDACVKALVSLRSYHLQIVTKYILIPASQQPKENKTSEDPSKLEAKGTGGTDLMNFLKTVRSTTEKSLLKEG
PROTOCOL: IDO Kynurenine Assay with Human IDO1/HEK293 Cells
ASSAY_CONTEXT: 20 hours incubation, kynurenine detected with Ehrlich reagent, absorbance at 490 nm, read-out: HEK Human IDO-1 IC50
RESULT_TYPE: IC50 (µM)

# INPUT_SMILES, TEST_VALUE
measured = [
    ("CCOC(=O)Nc1ccc(NC(=O)Nc2cc([C@@H]3C[C@@H]3C(=O)O)ccc2N(CC(C)C)CC(C)C)cc1", 0.519),
    ("CC(C)CN(CC(C)C)c1ccc([C@@H]2C[C@@H]2C(=O)O)cc1NC(=O)Nc1ccc(C2CC2)cc1", 0.061),
    ("Cc1cc(NC(=O)Nc2cc([C@H]3C[C@H]3C(=O)O)ccc2N(CC(C)C)CC(C)C)on1", 0.006),
    ("CC(C)CN(CC(C)C)c1ccc([C@H]2C[C@H]2C(=O)O)cc1NC(=O)Nc1cc(C2CC2)no1", 0.002),
]
